Tested on: mPer2Luc MEF
PROTOCOL_TEXT: PER2::LUC luminescence relative to vehicle control (fold of vehicle); higher = higher PER2::LUC reporter signal
MEASUREMENT_PARAMETERS: time after treatment 30 h; 10 µM
Whole data set: some 5,300 compounds, median “PER2::LUC luminescence relative to vehicle control” near 0.96, cut for the highest 2% near 1.3. The full list was thinned out, with the highest values kept by preference.
MEASURED_METRIC: PER2::LUC luminescence
Could you respond with only the numeric value?

Solved cases below.
# ITEM_SMILES, OBSERVED_VALUE
data = [
    ("CC(=O)O[C@H](CC(=O)O)C[N+](C)(C)C", 0.967),
    ("COc1ccc(-c2nc3cc(F)ccc3s2)cc1OC", 1.52),
]

Ask | Given `COc1ccccc1O` , state its recorded PER2::LUC luminescence.
Reply | 0.878

Ask | Please answer likewise for `CNC(=S)NCCSCc1[nH]cnc1C`
Reply | 1.06

Ask | Please answer likewise for `O=C(NCc1cccs1)c1cc2nc(-c3ccco3)cc(C(F)(F)Cl)n2n1`
Reply | 1.11

Ask | Please answer likewise for `O=C1/C(=C/c2cc(Br)c(O)c(Br)c2)COC/C1=C\c1cc(Br)c(O)c(Br)c1`
Reply | 0.258

Ask | Please answer likewise for `COc1cc(-c2nc3ccccc3s2)ccc1O`
Reply | 1.5

Ask | Please answer likewise for `COc1nccnc1NS(=O)(=O)c1ccc(N)cc1`
Reply | 1.97

Ask | Please answer likewise for `CO/N=C(\C(=O)N[C@@H]1C(=O)N2C(C(=O)[O-])=C(C[n+]3ccc(N)n3CCO)CS[C@H]12)c1csc(N)n1`
Reply | 1.1

Ask | Please answer likewise for `COc1cc(-c2ccc(=O)[nH]n2)ccc1OC(F)F`
Reply | 0.924

Ask | Please answer likewise for `FC(F)(F)c1ccc(Nc2nc(-c3c(C(F)(F)F)nc4ccccn34)cs2)cc1`
Reply | 0.305
